biological target: Histone deacetylase 8 (Homo sapiens, UniProt Q9BY41); test: Inhibition of HDAC8 (unknown origin) assessed as release of fluorogenic AMC pre-incubated for 15 mins followed by addition of trypsin and substrate measured after 60 mins microplate reader analysis
Sequence (Q9BY41 whole entry): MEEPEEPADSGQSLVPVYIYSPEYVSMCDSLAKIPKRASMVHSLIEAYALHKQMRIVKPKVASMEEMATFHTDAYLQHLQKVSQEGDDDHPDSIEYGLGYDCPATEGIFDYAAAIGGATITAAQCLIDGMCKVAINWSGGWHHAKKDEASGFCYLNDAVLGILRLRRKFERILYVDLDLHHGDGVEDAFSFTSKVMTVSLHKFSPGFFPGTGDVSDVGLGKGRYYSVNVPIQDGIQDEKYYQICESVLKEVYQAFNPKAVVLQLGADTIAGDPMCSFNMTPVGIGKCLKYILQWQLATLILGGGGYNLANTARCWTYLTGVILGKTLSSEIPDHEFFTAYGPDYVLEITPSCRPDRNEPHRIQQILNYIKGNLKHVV
quantity: IC50
Answer format reminder: number followed by unit.

Per the record, O=C(NO)[C@@H](Cc1ccccc1)n1nnc(-c2ccccc2)c1C#CC1CC1 has IC50 of 800 pM

* * *

target: Histone deacetylase 2 (Homo sapiens, UniProt Q92769)
Sequence (Q92769 whole entry): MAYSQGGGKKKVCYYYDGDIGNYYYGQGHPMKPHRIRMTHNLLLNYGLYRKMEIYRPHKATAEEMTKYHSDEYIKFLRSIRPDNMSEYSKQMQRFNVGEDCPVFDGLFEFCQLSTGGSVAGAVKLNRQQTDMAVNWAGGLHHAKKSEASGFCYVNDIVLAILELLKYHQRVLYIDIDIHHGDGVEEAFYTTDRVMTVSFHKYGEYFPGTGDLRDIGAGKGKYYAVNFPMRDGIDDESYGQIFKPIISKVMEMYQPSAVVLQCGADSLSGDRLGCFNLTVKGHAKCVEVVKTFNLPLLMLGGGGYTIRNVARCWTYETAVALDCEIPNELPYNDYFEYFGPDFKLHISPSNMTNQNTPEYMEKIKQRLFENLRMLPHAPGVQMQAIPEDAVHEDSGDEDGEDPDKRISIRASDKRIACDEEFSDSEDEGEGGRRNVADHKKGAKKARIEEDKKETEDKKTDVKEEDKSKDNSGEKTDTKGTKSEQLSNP
pIC50: −log10 of the molar value.
quantity: pIC50

The reported pIC50 of the compound O=C(NO)[C@@H](Cc1ccccc1)n1nnc(-c2ccccc2)c1C#CC1CC1 was < 4.70
